Provenance of the data: ChEMBL document CHEMBL3763099

tested on: HeLa; experiment: Cytotoxicity against human HeLa cells assessed as inhibition of cell viability at 10 uM after 3 days by trypan blue dye exclusion assay; format: functional; settings: 72 h
Please provide measured inhibition at 10 µM for the entries that follow.
Give bare numbers, in %.

In the examples that follow, each entry is paired with its recorded inhibition at 10 µM.
1) CC(C)=CCn1ccnc1/C=C/C=C/C(=O)/C=C/c1nccn1CC=C(C)C :: 94
2) O=C(/C=C/C=C/c1nccs1)/C=C/c1nccs1 :: 94
3) Cc1cccc(/C=C/C=C/C(=O)/C=C/c2cccc(C)n2)n1 :: 94
4) O=C(/C=C/C=C/c1ccncc1)/C=C/c1ccncc1 :: 95
5) Cn1ccnc1/C=C/C=C/C(=O)/C=C/c1nccn1C :: 93

Could you report inhibition at 10 µM for every entry in the following list?
1. CC(C)CCn1ccnc1/C=C/C=C/C(=O)/C=C/c1nccn1CCC(C)C
2. Cc1nc(C(F)(F)F)c(/C=C/C=C/C(=O)/C=C/c2sc(C)nc2C(F)(F)F)s1
3. Cc1csc(/C=C/C=C/C(=O)/C=C/c2nc(C)cs2)n1

1. 95
2. 96
3. 96

# return inhibition at 10 µM for each item in the list
1. CCCCn1ccnc1/C=C/C=C/C(=O)/C=C/c1nccn1CCCC
2. Cc1cc(/C=C/C=C/C(=O)/C=C/c2cc(C)on2)no1

[92, 97]
